# ASSAY_TARGET: Ataxin-2 (Homo sapiens)
# PROTOCOL_DESCRIPTION: qHTS for Inhibitors of ATXN expression.
# Format: functional
Hit rate of the full screen: of about 400,000 compounds, about 2,100 (0.53%) were called active. Roughly 14% stayed inconclusive and do not appear here. How the calls were made is not given here. For the sample, actives were picked, then their nearest neighbours and some compounds at random.
Classes used: 1 (active), 0 (inactive)

{"MOLECULE": "CCOc1ccc(-c2csc(/C(C#N)=C\\c3ccc(O)c([N+](=O)[O-])c3)n2)cc1", "ASSAY_TARGET": "Ataxin-2 (Homo sapiens)", "ANSWER_LABEL": 1}
{"MOLECULE": "COc1ccc(N2C3=C(C(=O)CC(C)(C)C3)C(c3cnn(C)c3)C3=C2CC(C)(C)CC3=O)cc1", "ASSAY_TARGET": "Ataxin-2 (Homo sapiens)", "ANSWER_LABEL": 0}
{"MOLECULE": "COc1cc(/C=N/NC(=O)c2ccccn2)cc2c1OCO2", "ASSAY_TARGET": "Ataxin-2 (Homo sapiens)", "ANSWER_LABEL": 0}
{"MOLECULE": "Nc1cccc2c1C(=O)N(C(=O)c1ccco1)C2=O", "ASSAY_TARGET": "Ataxin-2 (Homo sapiens)", "ANSWER_LABEL": 0}
{"MOLECULE": "O=C(N[C@@H](Cc1ccccc1)C(=O)OCc1ccccc1)c1[nH]cnc1C(=O)N1CCN(c2ccccc2)CC1", "ASSAY_TARGET": "Ataxin-2 (Homo sapiens)", "ANSWER_LABEL": 1}
{"MOLECULE": "CNC(=O)c1cc2c(=O)n3cccc(C)c3nc2n(C(C)C)c1=N", "ASSAY_TARGET": "Ataxin-2 (Homo sapiens)", "ANSWER_LABEL": 0}
{"MOLECULE": "N#Cc1c2c(c(NCCOCCO)n3c1nc1ccccc13)CCCC2", "ASSAY_TARGET": "Ataxin-2 (Homo sapiens)", "ANSWER_LABEL": 0}
{"MOLECULE": "CC(C)C[C@H](NC(=O)c1[nH]cnc1C(=O)N1CCN(C(=O)OC(C)(C)C)CC1)C(=O)OCc1ccccc1", "ASSAY_TARGET": "Ataxin-2 (Homo sapiens)", "ANSWER_LABEL": 1}
{"MOLECULE": "C/C(=N\\NC(=O)c1nc2ccccn2c1C)c1cc2ccccc2o1", "ASSAY_TARGET": "Ataxin-2 (Homo sapiens)", "ANSWER_LABEL": 0}
{"MOLECULE": "CC1=C(C(=O)N(C(C)C)C(C)C)CC(CC(=O)NC(c2ccccc2)c2ccccc2)C(=O)N1CCC1=CCCCC1 (stereo not drawn)", "ASSAY_TARGET": "Ataxin-2 (Homo sapiens)", "ANSWER_LABEL": 1}
{"MOLECULE": "O=C(Oc1cc(=O)oc2c1c(=O)n1c3c(cccc23)CC1)c1ccccc1", "ASSAY_TARGET": "Ataxin-2 (Homo sapiens)", "ANSWER_LABEL": 0}
{"MOLECULE": "Cc1ccc(NC(=O)Cc2nc(-c3c[nH]c(C(=O)N4CCCC4)c3)cs2)c(C)c1", "ASSAY_TARGET": "Ataxin-2 (Homo sapiens)", "ANSWER_LABEL": 0}
{"MOLECULE": "COc1ccccc1C(=O)Nc1nc2n(n1)C(c1ccc(F)cc1)C=C(c1ccc(Cl)cc1)N2 (stereo not drawn)", "ASSAY_TARGET": "Ataxin-2 (Homo sapiens)", "ANSWER_LABEL": 0}
{"MOLECULE": "O=C(NC(CC(=O)N1CCN(c2ccccc2)CC1)c1ccccc1)c1ccccc1 (stereo not drawn)", "ASSAY_TARGET": "Ataxin-2 (Homo sapiens)", "ANSWER_LABEL": 0}
{"MOLECULE": "Cc1cccc(Nc2nc(-c3ccccc3)c(C(=O)Nc3cccnc3)s2)c1", "ASSAY_TARGET": "Ataxin-2 (Homo sapiens)", "ANSWER_LABEL": 0}
{"MOLECULE": "O=C(O)c1ccc(CNCc2ccccc2F)cc1", "ASSAY_TARGET": "Ataxin-2 (Homo sapiens)", "ANSWER_LABEL": 0}
{"MOLECULE": "C/C(CC(=O)NCc1ccco1)=N\\NC(=O)Cc1ccc(-c2ccccc2)cc1", "ASSAY_TARGET": "Ataxin-2 (Homo sapiens)", "ANSWER_LABEL": 0}
{"MOLECULE": "CCN(CC)CCOc1ccc2c(c1)C(=NNC(=O)c1ccccn1)c1cc(OCCN(CC)CC)ccc1-2", "ASSAY_TARGET": "Ataxin-2 (Homo sapiens)", "ANSWER_LABEL": 1}
{"MOLECULE": "O=C(COC(=O)c1cc(S(=O)(=O)N2CCCC2)ccc1O)NCCc1ccccc1", "ASSAY_TARGET": "Ataxin-2 (Homo sapiens)", "ANSWER_LABEL": 0}
{"MOLECULE": "CCc1ccc(/C=C(/C#N)c2nc(-c3ccc(C)cc3)cs2)cc1", "ASSAY_TARGET": "Ataxin-2 (Homo sapiens)", "ANSWER_LABEL": 0}
{"MOLECULE": "CCOC(=O)C1=CN(CC2CCCO2)C=C(C(=O)OCC)C1c1ccccc1C(F)(F)F (stereo not drawn)", "ASSAY_TARGET": "Ataxin-2 (Homo sapiens)", "ANSWER_LABEL": 0}
{"MOLECULE": "Cn1nnc(NC(=S)NC(=O)c2ccc3ccccc3c2)n1", "ASSAY_TARGET": "Ataxin-2 (Homo sapiens)", "ANSWER_LABEL": 0}
{"MOLECULE": "O=C1c2ccccc2-c2onc3c(N4CCN(CCO)CC4)cc(N4CCN(C(=O)c5ccco5)CC4)c1c23", "ASSAY_TARGET": "Ataxin-2 (Homo sapiens)", "ANSWER_LABEL": 1}
{"MOLECULE": "CCNC(=O)c1cc2c(=O)n3cccc(C)c3nc2n(CCc2ccccc2)c1=N", "ASSAY_TARGET": "Ataxin-2 (Homo sapiens)", "ANSWER_LABEL": 0}
{"MOLECULE": "CN(C)/C=N/c1c(Br)cc(Br)c2nonc12", "ASSAY_TARGET": "Ataxin-2 (Homo sapiens)", "ANSWER_LABEL": 0}
{"MOLECULE": "Cc1ccc(-c2nc3ncccc3o2)cc1N", "ASSAY_TARGET": "Ataxin-2 (Homo sapiens)", "ANSWER_LABEL": 0}
{"MOLECULE": "CC1(C)OC(=O)C(/C=N\\Nc2c(Cl)cc(Cl)cc2Cl)=C(O)O1", "ASSAY_TARGET": "Ataxin-2 (Homo sapiens)", "ANSWER_LABEL": 0}
{"MOLECULE": "CC(C)OCCCn1c(NN)nc2ccccc2c1=O", "ASSAY_TARGET": "Ataxin-2 (Homo sapiens)", "ANSWER_LABEL": 0}
{"MOLECULE": "CCc1ccc(/C=C2\\Oc3c(ccc(O)c3CN3CCN(CCO)CC3)C2=O)cc1", "ASSAY_TARGET": "Ataxin-2 (Homo sapiens)", "ANSWER_LABEL": 0}
{"MOLECULE": "CCOc1ccc(-c2cn3c(n2)sc2cc(C(=O)NCCCN4CCCCCC4)ccc23)cc1", "ASSAY_TARGET": "Ataxin-2 (Homo sapiens)", "ANSWER_LABEL": 1}
{"MOLECULE": "COc1ccc(/C=C2\\SC(=S)N(NS(=O)(=O)c3ccccc3)C2=O)c(OC)c1", "ASSAY_TARGET": "Ataxin-2 (Homo sapiens)", "ANSWER_LABEL": 1}
{"MOLECULE": "COc1ccc(C2C=C(c3ccc(Br)cc3)Nc3nc(N4C(=O)CCC4=O)nn32)cc1 (stereo not drawn)", "ASSAY_TARGET": "Ataxin-2 (Homo sapiens)", "ANSWER_LABEL": 0}
{"MOLECULE": "O=C1c2cccc3c([N+](=O)[O-])ccc(c23)C(=O)N1CC1CCCO1 (stereo not drawn)", "ASSAY_TARGET": "Ataxin-2 (Homo sapiens)", "ANSWER_LABEL": 0}
